Values from patent US10597378B2

target: human NOP receptor (Homo sapiens, UniProt P41146); test: cAMP assay in CHO-K1 cells expressing human NOP (CHO-K1-NOP); conditions: read-out: EC50 in decreasing the cAMP level
Sequence (P41146 whole entry): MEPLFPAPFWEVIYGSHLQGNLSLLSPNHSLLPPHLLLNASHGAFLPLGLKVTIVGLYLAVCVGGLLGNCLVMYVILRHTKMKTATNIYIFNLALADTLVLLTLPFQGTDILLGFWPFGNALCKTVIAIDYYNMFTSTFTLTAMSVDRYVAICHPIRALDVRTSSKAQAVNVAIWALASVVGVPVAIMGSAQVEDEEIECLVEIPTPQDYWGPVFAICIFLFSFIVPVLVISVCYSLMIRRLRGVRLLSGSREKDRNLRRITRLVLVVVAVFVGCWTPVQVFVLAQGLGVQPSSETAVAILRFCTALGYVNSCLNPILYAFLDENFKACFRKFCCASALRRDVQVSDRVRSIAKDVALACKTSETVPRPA
readout name: pEC50
By convention, pEC50 is the negative base-10 log of a molar concentration.

Entry under review: CN1CCc2ccccc2C1CNC(=O)c1ccc(Cl)c(Cl)c1 (stereo not shown) . Reported pEC50?
8.66

====

molecular target: UniProt P35372; assay: cell-based; design: expressed in transfected cells; host or cells: CHO-K1/MOR/Ga15 cells; conditions: area under the [Ca2+]i fluorescence response curve, up to 90 s
FLIPR Ca2+ AUC values for the compounds below.
The response must contain the number and no unit.

Use these answered entries as a reference point.
INSERT INTO assay_data (compound, numeric_readout) VALUES
  ('CC(C)(C)C(=O)NCC1c2ccccc2CCN1S(=O)(=O)c1ccc(Br)cc1OC(F)(F)F (stereo not shown)', 12780),
  ('Cc1ccc(C(=O)NCC2c3ccccc3CCN2CC(C)C)cc1 (stereo not shown)', 18418),
  ('O=C(NCC1NCCc2ccccc21)c1ccccc1OC(F)(F)F (stereo not shown)', 7855);

Please examine the following record next.
Report FLIPR Ca2+ AUC for COc1ccccc1S(=O)(=O)N1CCc2ccccc2C1CNC(=O)C1CCCCC1 (stereo not shown) tested on UniProt P35372.
3327

====

pEC50 values for the molecules below.
Target: MOR (Homo sapiens, UniProt P35372)
Sequence (P35372 whole entry): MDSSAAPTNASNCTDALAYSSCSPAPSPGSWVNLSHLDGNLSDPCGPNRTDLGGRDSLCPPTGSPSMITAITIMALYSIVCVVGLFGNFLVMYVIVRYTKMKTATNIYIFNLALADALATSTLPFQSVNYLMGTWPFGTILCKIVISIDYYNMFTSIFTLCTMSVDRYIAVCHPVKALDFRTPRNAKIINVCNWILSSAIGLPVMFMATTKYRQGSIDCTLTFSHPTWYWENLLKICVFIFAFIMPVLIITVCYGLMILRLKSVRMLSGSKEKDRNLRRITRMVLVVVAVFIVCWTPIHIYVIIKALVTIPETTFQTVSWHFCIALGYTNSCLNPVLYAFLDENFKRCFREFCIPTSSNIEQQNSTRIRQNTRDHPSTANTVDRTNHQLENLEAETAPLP
Test: cell-based
Parameters: expressed in transfected cells; host or cells: CHO-K1/MOR/Ga15 cells
Conditions: CHO-K1/MOR/Ga15 cells; read-out: FLIPR Ca2+ EC50
Protocol: In an exemplary in vitro assay for identifying MOR agonists, cells that express a MOR are treated with a test compound in a cellular calcium fluorescent assay and calcium fluorescence intensity is then measured to determine whether the MOR is activated. […] One day before the assay, CORNING® black with clear flat bottom 96-well assay plates were coated with a 0.1 mg/mL Poly-L-Lysine solution. […] The [Ca^2+]i fluorescence was measured up to 90 s after agonist injection.
By convention, pEC50 is the negative base-10 log of a molar concentration.

Use these answered entries as a reference point.
INSERT INTO assay_data (molecule, numeric_readout) VALUES
  ('Cc1ccc(C(=O)NCC2c3ccccc3CCN2C)cc1 (stereo not shown)', 7.40),
  ('O=C(NCC1NCCc2ccccc21)c1ccccc1 (stereo not shown)', 6.12),
  ('O=C(NCC1NCCc2ccccc21)c1cccc(Cl)c1 (stereo not shown)', 6.42),
  ('O=C(NCC1c2ccccc2CCN1S(=O)(=O)c1ccc(Br)cc1OC(F)(F)F)N1CCCCC1 (stereo not shown)', 5.56),
  ('CCC1CCC(C(=O)NCC2NCCc3ccccc32)CC1 (stereo not shown)', 5.95),
  ('CC1CCC(C(=O)NCC2c3ccccc3CCN2S(=O)(=O)c2ccc(Br)cc2OC(F)(F)F)CC1 (stereo not shown)', 6.01),
  ('CC1CCC(C(=O)NCC2NCCc3ccccc32)CC1 (stereo not shown)', 5.82),
  ('Cc1ccc(C(=O)NCC2c3ccccc3CCN2CCCl)cc1 (stereo not shown)', 7.52),
  ('O=C(NCC1NCCc2ccccc21)N1CCCCC1 (stereo not shown)', 5.48),
  ('O=C(NCC1NCCc2ccccc21)c1ccccc1OC(F)(F)F (stereo not shown)', 5.48);

Entry under review: CC1CCCCC1C(=O)NCC1NCCc2ccccc21 (stereo not shown) . Reported pEC50?
5.00

Entry under review: CCCCN1CCc2ccccc2C1CNC(=O)c1ccc(C)cc1 (stereo not shown) . Reported pEC50?
6.80

Entry under review: O=C(NCC1c2ccccc2CCN1S(=O)(=O)c1ccc(Br)cc1OC(F)(F)F)C1CCCCC1 (stereo not shown) . Reported pEC50?
5.95

Entry under review: O=C(NCC1c2ccccc2CCN1S(=O)(=O)c1ccc(Br)cc1OC(F)(F)F)N1CCCC1 (stereo not shown) . Reported pEC50?
5.36

Entry under review: Cc1ccc(C(=O)NCC2c3ccccc3CCN2CC(C)C)cc1 (stereo not shown) . Reported pEC50?
6.96

Entry under review: COc1ccc(S(=O)(=O)N2CCc3ccccc3C2CNC(=O)C2CCCCC2)cc1 (stereo not shown) . Reported pEC50?
5.11

Entry under review: O=C(NCC1c2ccccc2CCN1S(=O)(=O)c1ccc(Br)cc1OC(F)(F)F)c1ccccc1 (stereo not shown) . Reported pEC50?
5.25

Entry under review: CC(C)(C)C(=O)NCC1c2ccccc2CCN1S(=O)(=O)c1ccc(Br)cc1OC(F)(F)F (stereo not shown) . Reported pEC50?
5.34

Entry under review: Cc1ccc(C(=O)NCC2c3ccccc3CCN2C)cc1C (stereo not shown) . Reported pEC50?
8.00

Entry under review: O=C(NCC1c2ccccc2CCN1S(=O)(=O)c1ccc(Br)cc1Br)C1CCCCC1 (stereo not shown) . Reported pEC50?
5.48

Entry under review: CCc1ccc(C(=O)NCC2c3ccccc3CCN2C)cc1 (stereo not shown) . Reported pEC50?
8.00

Entry under review: O=C(NCC1NCCc2ccccc21)N1CCCC1 (stereo not shown) . Reported pEC50?
5.40

Entry under review: O=C(NCC1NCCc2ccccc21)C1CCCC1 (stereo not shown) . Reported pEC50?
5.05

Entry under review: Cc1cc(F)ccc1S(=O)(=O)N1CCc2ccccc2C1CNC(=O)C1CCCCC1 (stereo not shown) . Reported pEC50?
5.00

====

FLIPR Ca2+ AUC values for the compounds below.
target: MOR (Homo sapiens, UniProt P35372); assay: cell-based; set-up: expressed in transfected cells; host or cells: CHO-K1/MOR/Ga15 cells; settings: area under the [Ca2+]i fluorescence response curve, up to 90 s
The response must contain the number and no unit.

INSERT INTO measurements (compound, experimental_target, numeric_readout) VALUES
  ('COC1CCC(C(=O)NCC2NCCc3ccccc32)CC1 (centres unmarked)', 'MOR (Homo sapiens, UniProt P35372)', 5538),
  ('O=C(NCC1NCCc2ccccc21)c1cccc(Cl)c1 (centres unmarked)', 'MOR (Homo sapiens, UniProt P35372)', 13149),
  ('CC1CCC(C(=O)NCC2NCCc3ccccc32)CC1 (centres unmarked)', 'MOR (Homo sapiens, UniProt P35372)', 12657),
  ('COc1cccc(C(=O)NCC2NCCc3ccccc32)c1 (centres unmarked)', 'MOR (Homo sapiens, UniProt P35372)', 13302),
  ('O=C(NCC1NCCc2ccccc21)c1ccccc1F (centres unmarked)', 'MOR (Homo sapiens, UniProt P35372)', 12102),
  ('Cc1ccc(S(=O)(=O)N2CCc3ccccc3C2CNC(=O)C2CCCCC2)cc1 (centres unmarked)', 'MOR (Homo sapiens, UniProt P35372)', 6808);

Entry under review: O=C(NCC1c2ccccc2CCN1S(=O)(=O)c1ccc(Br)cc1)C1CCCCC1 (centres unmarked) . Reported FLIPR Ca2+ AUC?
6103

Entry under review: O=C(NCC1NCCc2ccccc21)c1cccc(F)c1 (centres unmarked) . Reported FLIPR Ca2+ AUC?
11425

Entry under review: Cc1ccc(C(=O)NCC2c3ccccc3CCN2C)cc1C (centres unmarked) . Reported FLIPR Ca2+ AUC?
17393

Entry under review: CCC1CCC(C(=O)NCC2NCCc3ccccc32)CC1 (centres unmarked) . Reported FLIPR Ca2+ AUC?
10059

Entry under review: O=C(NCC1c2ccccc2CCN1S(=O)(=O)c1ccc(Br)cc1OC(F)(F)F)c1ccccc1 (centres unmarked) . Reported FLIPR Ca2+ AUC?
9294

Entry under review: O=C(NCC1NCCc2ccccc21)C1CCCCC1 (centres unmarked) . Reported FLIPR Ca2+ AUC?
6142

Entry under review: O=C(NCC1c2ccccc2CCN1S(=O)(=O)c1ccc(F)cc1C(F)(F)F)C1CCCCC1 (centres unmarked) . Reported FLIPR Ca2+ AUC?
5153

Entry under review: O=C(NCC1c2ccccc2CCN1S(=O)(=O)c1ccc(Br)cc1Br)C1CCCCC1 (centres unmarked) . Reported FLIPR Ca2+ AUC?
7023

Entry under review: O=C(NCC1c2ccccc2CCN1S(=O)(=O)c1ccc(Br)cc1OC(F)(F)F)C1CC1 (centres unmarked) . Reported FLIPR Ca2+ AUC?
11880

Entry under review: O=C(NCC1c2ccccc2CCN1S(=O)(=O)c1ccc(Br)cc1OC(F)(F)F)C1CCC1 (centres unmarked) . Reported FLIPR Ca2+ AUC?
13461

====

biological target: MOR (Homo sapiens, UniProt P35372); experiment: cell-based; design: expressed in transfected cells; host or cells: CHO-K1/MOR/Ga15 cells; details: CHO-K1/MOR/Ga15 cells; read-out: FLIPR Ca2+ EC50
EC50 values for the molecules below.
Form entry: value (µM) — number only.

Use these answered entries as a reference point.
INSERT INTO measurements (molecule, numeric_readout) VALUES
  ('COc1ccccc1S(=O)(=O)N1CCc2ccccc2C1CNC(=O)C1CCCCC1 (stereo not shown)', 22.5),
  ('O=C(NCC1c2ccccc2CCN1S(=O)(=O)c1ccccc1OC(F)(F)F)C1CCCCC1 (stereo not shown)', 3.31),
  ('O=C(NCC1c2ccccc2CCN1S(=O)(=O)c1ccc(Br)cc1OC(F)(F)F)C1CCC1 (stereo not shown)', 1.34),
  ('O=C(NCC1NCCc2ccccc21)c1ccccc1F (stereo not shown)', 3.28),
  ('O=C(NCC1c2ccccc2CCN1S(=O)(=O)c1ccc(Br)cc1)C1CCCCC1 (stereo not shown)', 8.82);

Please examine the following record next.
Entry under review: Cc1ccc(C(=O)NCC2NCCc3ccccc32)c(C)c1 (stereo not shown) . Reported EC50?
0.66
